# ASSAY_NOTES: chemical genetic growth profiling, strain panel (AID 1159580);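 also: tested at 20 µM; growth read once vehicle control cultures reached saturation at 30 °C; 1 = growth at the plate median or of vehicle wells; lower values mean less growth of the strain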
# TEST_CONTEXT: S. cerevisiae deletion strains, growth OD, locus YLR027C, strain aat2, stronger effect = lower value
About 2,000 (36%) of roughly 5,500 compounds were called active. Another 18% or so got no clear call; they are omitted. The list shows a part of the results.
ASSAY_METRIC: normalized growth
Please reply with the value in numeric form only.

For COc1cc(/C=C/C(=O)O)ccc1O , write its normalized growth.
1.01

Give me measured normalized growth, please, for this molecule: CC(=O)O[C@H]1C[C@@H](OC(C)=O)C(C)(C)C2C[C@@H](OC(C)=O)[C@]3(C)C(CC[C@@]4(C)[C@H](c5ccoc5)C(=O)[C@H]5O[C@]543)[C@]21C (stereo not given in full)
1.02

Output measured normalized growth for this item: Nc1nc2c(c(=O)[nH]1)N(C=O)C(CNc1ccc(C(=O)N[C@@H](CCC(=O)O)C(=O)O)cc1)CN2 (stereo not given in full)
0.958

Tell me normalized growth reported for C=CCN1CC[C@]23c4c5ccc(O)c4OC2C(=O)CC[C@@]3(O)[C@H]1C5 (stereo not given in full)
0.976

Please indicate normalized growth recorded for COc1ccc(/C=C/C(=O)c2cc(O)ccc2O)cc1
0.267

Please give the documented normalized growth of COc1cc(/C=C/C(=O)O)cc(OC)c1OC
0.998

Dear colleague, please send me the reported normalized growth for CC1(C)O[C@@H]2[C@@H](CO[C@@]3(COS(N)(=O)=O)OC(C)(C)O[C@@H]23)O1 when you can.
1.01

Give the measured normalized growth for COc1ccc(C=CC(=O)c2ccc(O)cc2O)cc1OC
0.886

Read the entry CCOC(=O)C1=C[C@]2(CC)CCCN3CCc4c(n1c1ccccc41)[C@@H]32 and write its reported normalized growth.
1.02

Give normalized growth for COc1ccc(CN(CCN(C)C)c2ncccn2)cc1
1.01
